Reference source: patent US8129355B2

molecular target: GAL4 DBD-CfEcR(DEF)/VP16AD-MmRXRE (Choristoneura fumiferana, UniProt O77240); assay: cell-based
Sequence (O77240 1-513): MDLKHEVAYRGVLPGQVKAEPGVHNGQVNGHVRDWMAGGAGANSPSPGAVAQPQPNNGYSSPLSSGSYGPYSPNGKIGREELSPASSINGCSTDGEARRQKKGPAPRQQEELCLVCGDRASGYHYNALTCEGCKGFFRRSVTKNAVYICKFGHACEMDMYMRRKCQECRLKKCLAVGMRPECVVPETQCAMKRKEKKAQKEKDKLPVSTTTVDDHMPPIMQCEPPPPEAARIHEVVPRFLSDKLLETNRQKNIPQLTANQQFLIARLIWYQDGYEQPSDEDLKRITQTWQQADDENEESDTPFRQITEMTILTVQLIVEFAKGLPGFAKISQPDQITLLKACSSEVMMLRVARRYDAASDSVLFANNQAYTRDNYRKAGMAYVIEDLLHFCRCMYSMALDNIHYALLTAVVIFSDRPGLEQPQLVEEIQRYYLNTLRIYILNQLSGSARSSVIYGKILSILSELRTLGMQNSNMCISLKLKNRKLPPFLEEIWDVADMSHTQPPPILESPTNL
// values below are reported Fold Induction Average, 13B3 Assay (33 μM)
Give a plain numeric answer without units written out.

compound	assay result
Cc1c(C(=O)NC2(C(=O)c3ccccc3)CCCC2)oc2ccccc12	1

Lab book: Fold Induction Average, 13B3 Assay (33 μM) of COc1cccc(C(=O)NC2(C(=O)c3cccc(C)c3)CCN(C(=O)OC(C)(C)C)CC2)c1C noted as 0

get_value(item= COc1cccc(C(=O)NC(C)(C(=O)c2ccc3c(c2)OCO3)C(C)C)c1C (stereo not drawn) , readout=Fold Induction Average, 13B3 Assay (33 μM)) returns 0

###

Parameter: fold induction at 33 µM. Scope: all listed entries.
target: Bombyx mori EcR (VP16 fusion, switch construct CVBE) with 6XEcRE LacZ reporter (Bombyx mori); construct: expressed in transfected cells; host or cells: Human 293 kidney (HEK-293) cells, retrovirally infected, clone Z3; experiment: Z3 assay: β-galactosidase (LacZ) reporter gene fold induction in stably transformed human 293 kidney cells (clone Z3); type: cell-based; details: read-out: Fold Induction Average, Z3 Assay (33 μM)
Sequence (P49881 86-606 limits assumed): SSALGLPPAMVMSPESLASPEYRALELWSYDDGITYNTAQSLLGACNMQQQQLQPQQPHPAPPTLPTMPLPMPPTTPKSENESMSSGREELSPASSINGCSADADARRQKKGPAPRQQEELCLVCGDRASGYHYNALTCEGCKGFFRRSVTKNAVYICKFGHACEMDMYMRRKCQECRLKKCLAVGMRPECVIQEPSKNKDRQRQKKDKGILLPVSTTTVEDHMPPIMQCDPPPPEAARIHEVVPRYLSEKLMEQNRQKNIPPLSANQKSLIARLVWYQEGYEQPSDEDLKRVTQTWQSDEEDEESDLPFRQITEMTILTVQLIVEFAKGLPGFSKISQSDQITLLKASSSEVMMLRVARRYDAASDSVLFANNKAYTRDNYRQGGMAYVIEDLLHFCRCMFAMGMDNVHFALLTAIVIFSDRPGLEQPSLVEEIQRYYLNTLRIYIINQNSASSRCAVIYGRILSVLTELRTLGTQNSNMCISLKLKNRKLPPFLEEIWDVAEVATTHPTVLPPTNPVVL
Sequence (P19793 whole entry partner, the tested form may be a part): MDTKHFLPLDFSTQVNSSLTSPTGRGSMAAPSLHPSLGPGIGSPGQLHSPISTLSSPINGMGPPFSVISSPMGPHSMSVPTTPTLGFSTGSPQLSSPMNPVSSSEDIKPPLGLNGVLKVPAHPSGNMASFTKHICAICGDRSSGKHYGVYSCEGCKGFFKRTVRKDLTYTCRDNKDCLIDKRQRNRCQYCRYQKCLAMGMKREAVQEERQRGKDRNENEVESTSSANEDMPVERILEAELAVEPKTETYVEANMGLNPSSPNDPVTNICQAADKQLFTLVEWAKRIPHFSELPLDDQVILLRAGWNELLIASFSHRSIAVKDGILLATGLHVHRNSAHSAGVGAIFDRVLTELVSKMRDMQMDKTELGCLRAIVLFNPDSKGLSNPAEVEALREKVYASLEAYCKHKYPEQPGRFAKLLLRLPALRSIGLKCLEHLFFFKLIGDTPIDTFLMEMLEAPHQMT

Consider the reported fold induction at 33 µM for these compounds:
compound	fold induction at 33 µM
COc1cccc(C(=O)NC(C)(C(=O)c2ccccc2)C(C)C)c1C (stereo not drawn)	66
COc1ccccc1C(=O)C(C)(NC(=O)c1cccc(OC)c1C)C(C)C (stereo not drawn)	485

Entry COc1cccc(C(=O)NC2(C(=O)c3cccc(C)c3)CCCCC2)c1C ; fold induction at 33 µM = 811

###

target: GAL4 DBD (1-147)-CfEcR(DEF)/VP16AD-βRXREF-LmUSPEF (Choristoneura fumiferana); assay: 27-63 assay: luciferase reporter gene expression in stable CHO cell clone 27-63; details: maximum fold induction at any concentration relative to that of GS-E ligand
Sequence (O77240 191-513): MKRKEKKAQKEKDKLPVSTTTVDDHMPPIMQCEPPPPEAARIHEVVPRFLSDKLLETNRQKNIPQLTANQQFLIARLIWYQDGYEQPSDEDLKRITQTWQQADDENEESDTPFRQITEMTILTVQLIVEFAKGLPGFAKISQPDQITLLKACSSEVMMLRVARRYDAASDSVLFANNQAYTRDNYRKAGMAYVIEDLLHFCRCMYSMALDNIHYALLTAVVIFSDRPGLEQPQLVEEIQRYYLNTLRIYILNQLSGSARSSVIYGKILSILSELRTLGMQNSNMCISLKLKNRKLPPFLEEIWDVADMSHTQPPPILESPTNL
Sequence (P28702 296-455 partner limits assumed): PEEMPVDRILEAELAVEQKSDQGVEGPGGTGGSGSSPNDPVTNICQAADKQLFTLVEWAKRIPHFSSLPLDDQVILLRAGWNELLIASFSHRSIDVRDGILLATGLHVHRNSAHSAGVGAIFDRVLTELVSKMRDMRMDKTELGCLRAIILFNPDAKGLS
Would you please tag the item Fulfilled when its 27-63 Rel Max FI is 0.5 or above, and Not fulfilled when it is below?

Previously resolved entries follow.
compound	label value
COc1cccc(C(=O)NC2(C(=O)c3cccc(C)c3)CCCCC2)c1C	Fulfilled
COc1cccc(C(=O)NC(C)(C(=O)c2ccc(F)c(C)c2)C(C)C)c1C (centres unmarked)	Not fulfilled
COc1cccc(C(=O)NC(C)(CC(C)C)C(=O)c2cccc(C)c2)c1C (centres unmarked)	Not fulfilled
COc1cc(C(=O)C2(NC(=O)c3cccc(OC)c3C)CCCCC2)cc(OC)c1C	Fulfilled
COc1cccc(C(=O)NC(C)(C)C(=O)c2cc(C)cc(C)c2)c1C	Not fulfilled
COc1cccc(C(=O)NC2(C(=O)c3ccccc3)CCCC2)c1	Not fulfilled
CCC(CC)(NC(=O)c1cccc(OC)c1C)C(=O)c1ccc(F)cc1	Not fulfilled
COc1ccc(C(=O)C2(NC(=O)c3cccc(OC)c3C)CCCCC2)c(OC)n1	Fulfilled
COc1cccc(C(=O)NC2(C(=O)c3cc(C)cc(C)c3)CC2)c1C	Not fulfilled
COc1cccc(C(=O)NC2(C(=O)c3cc(C)cc(C)c3)CCCC2)c1C	Fulfilled

Input: Does 27-63 Rel Max FI meet or surpass 0.5 for CCc1c(OC)cccc1C(=O)NC1(C(=O)c2cc(C)cc(C)c2)CCCC1 ?
Output: Fulfilled

Input: Determine whether measured 27-63 Rel Max FI meets or exceeds 0.5 for CCC(CC)(NC(=O)c1cccc(OC)c1C)C(=O)c1cc(C)cc(C)c1
Output: Fulfilled

Input: In plain terms: is recorded 27-63 Rel Max FI at least 0.5 for CCC(CC)(NC(=O)c1cccc(OC)c1C)C(=O)c1ccc(F)c(C)c1 ?
Output: Not fulfilled

Input: Is it the case that COc1cccc(C(=O)NC(C)(Cc2ccccc2)C(=O)c2cc(C)cc(C)c2)c1C (centres unmarked) has 27-63 Rel Max FI reaching or exceeding 0.5?
Output: Not fulfilled

Input: I'd appreciate it if you could say whether COc1cccc(C(=O)NC2(C(=O)c3ccc(F)cc3)CCCCC2)c1C has 27-63 Rel Max FI at least equal to 0.5.
Output: Not fulfilled

Input: Has Cc1cc(C)cc(C(=O)C2(NC(=O)c3ccc4c(c3)COCO4)CCCCC2)c1 a recorded 27-63 Rel Max FI greater than or equal to 0.5?
Output: Fulfilled

Input: Is 27-63 Rel Max FI at least 0.5? Consider Cc1cc(C)cc(C(=O)C2(NC(=O)c3ccc4c(c3)OCCO4)CCCCC2)c1
Output: Fulfilled
